Origin of measurements: ChEMBL document CHEMBL3865792

Experiment: Cytotoxicity against human MCF7 cells assessed as reduction in cell viability at 300 uM after 72 hrs by MTT assay
Format: functional
Settings: MCF7, 72 h
Use 20% as the dividing line for inhibition at 300 µM, with the line itself on the Criterion met side and lower values as Criterion not met.

Known results for compounds:
Compound: Cc1c(C)c2c(c(C)c1O)CCC(C)(C(=O)O)O2 (centres undefined)
Label value: Criterion not met
//
Compound: Cc1c(C)c2c(c(C)c1O)CCC(C)(C(=O)NCC1CC(C)(C)N([O])C1(C)C)O2 (centres undefined)
Label value: Criterion met
//
Compound: Cc1c(C)c2c(c(C)c1OC(=O)CCC(=O)O)CCC(C)(C(=O)NC1CC(C)(C)N([O])C1(C)C)O2 (centres undefined)
Label value: Criterion met
//
Compound: Cc1c(C)c2c(c(C)c1OC(=O)CCC(=O)O)CCC(C)(C(=O)NC1CC(C)(C)N([O])C(C)(C)C1)O2 (centres undefined)
Label value: Criterion not met
//
Compound: Cc1c(C)c2c(c(C)c1OC(=O)CCC(=O)NCC1CC(C)(C)N([O])C1(C)C)CCC(C)(C(=O)NCC1CC(C)(C)N([O])C1(C)C)O2 (centres undefined)
Label value: Criterion met

Asked: Could you tell me if the measured inhibition at 300 µM of CC1(C)CC(CNC(=O)CCC(=O)O)C(C)(C)N1[O] (centres undefined) reaches 20% or more?
Given back: Criterion met

Asked: Threshold query (inhibition at 300 µM >= 20%) on "Cc1c(C)c2c(c(C)c1O)CC[C@@](C)(CCC[C@H](C)CCC[C@H](C)CCCC(C)C)O2"
Given back: Criterion met

Asked: Evaluate CC1(C)CC(NC(=O)CCC(=O)O)C(C)(C)N1[O] (centres undefined) : inhibition at 300 µM at minimum 20%?
Given back: Criterion not met
